# tested-on: LXR beta (Homo sapiens)
# Construct: LXR alpha or beta LBD-GST; purchased ThermoFisher PV4658
# Sequence (P55055 222-460 limits assumed): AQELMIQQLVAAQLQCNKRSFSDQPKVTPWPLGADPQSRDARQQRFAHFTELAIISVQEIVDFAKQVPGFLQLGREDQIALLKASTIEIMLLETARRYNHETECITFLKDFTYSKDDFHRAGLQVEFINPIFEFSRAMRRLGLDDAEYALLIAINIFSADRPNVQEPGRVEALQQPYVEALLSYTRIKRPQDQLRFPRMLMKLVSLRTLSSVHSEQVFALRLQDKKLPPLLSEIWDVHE
# test-name: LanthaScreen TR-FRET LXR beta Coactivator Assay (cell-free binding)
# condition: TR-FRET, 12-point curve; read-out: Cell free binding LXRβ IC50
Counter-ions that a name gives are not always drawn.
Known IC50 of a selection of compounds

// known answers, use as guide
- compound: "C[C@]1(C(=O)NC(=O)[C@@]2(C)CCC[C@]3(C)c4cc(OCCO)ccc4CC[C@@H]23)CCC[C@]2(C)c3cc(O)ccc3CC[C@@H]12"
  IC50: "< 0.01 µM"
- compound: "C[C@]1(C(=O)NC(=O)[C@@]2(C)CCC[C@]3(C)c4cc(NC(=O)CN)ccc4CC[C@@H]23)CCC[C@]2(C)c3cc(O)ccc3CC[C@@H]12"
  IC50: "< 0.001 µM"

From here, focus on the item given below.
Task item: Which IC50 value belongs to C[C@]1(C(=O)NC(=O)[C@@]2(C)CCC[C@]3(C)c4cc(NC(=O)[C@@H](N)Cc5c[nH]cn5)ccc4CC[C@@H]23)CCC[C@]2(C)c3cc(O)ccc3CC[C@@H]12 [Compound 9m, trifluoroacetic acid salt] ?
Reply: < 0.01 µM

* * *

# Test system: THP1/LXR-Luc cells
# test-name: THP1/LXR-Luc luciferase reporter bioassay
# Type: cell-based
# condition: Homo sapiens, THP-1; 48 hours; relative to maximum activation of free payload 9d; read-out: Activation of THP1/LXR-Luc cells: Fold of activation
Counter-ions that a name gives are not always drawn.
parameter: Emax

// known answers, use as guide
- molecule: "C[C@]1(C(=O)NC(=O)[C@@]2(C)CCC[C@]3(C)c4cc(OCCN)ccc4CC[C@@H]23)CCC[C@]2(C)c3cc(O)ccc3CC[C@@H]12 [Compound 9c]"
  tested-on: "THP1/LXR-Luc cells"
  result-value: "> 75%"
- molecule: "C[C@]1(C(=O)NC(=O)[C@@]2(C)CCC[C@]3(C)c4cc(NC(=O)CCN)ccc4CC[C@@H]23)CCC[C@]2(C)c3cc(O)ccc3CC[C@@H]12 [Compound 9i]"
  tested-on: "THP1/LXR-Luc cells"
  result-value: "25 to 75%"

From here, focus on the item given below.
Task item: Which Emax value belongs to C[C@]1(C(=O)NC(=O)[C@@]2(C)CCC[C@]3(C)c4cc(NC(=O)[C@@H](N)Cc5c[nH]cn5)ccc4CC[C@@H]23)CCC[C@]2(C)c3cc(O)ccc3CC[C@@H]12 [Compound 9m, trifluoroacetic acid salt] ?
Reply: > 75%

* * *

Known IC50 of a selection of compounds
# tested-on: LXR beta (Homo sapiens, UniProt P55055)
# Construct: LXR alpha or beta LBD-GST; purchased ThermoFisher PV4658
# test-name: LanthaScreen TR-FRET LXR beta Coactivator Assay (cell-free binding)

- compound: "C[C@]1(C(=O)NC(=O)[C@@]2(C)CCC[C@]3(C)c4cc(OP(=O)(O)O)ccc4CC[C@@H]23)CCC[C@]2(C)c3cc(N)ccc3CC[C@@H]12 [Compound 17c]"
  IC50: "< 10 nM"

From here, focus on the item given below.
Task item: Which IC50 value belongs to COP(=O)(O)Oc1ccc2c(c1)[C@@]1(C)CCC[C@](C)(C(=O)NC(=O)[C@@]3(C)CCC[C@]4(C)c5cc(N)ccc5CC[C@@H]34)[C@@H]1CC2 [Compound 17b] ?
Reply: < 10 nM

Cited source for all entries: patent US12338199B2
